- Test system: rodent lifetime carcinogenesis bioassay, tumor incidence TD50
- method description: carcinogenic potency in animals, long-term in vivo studies, CPDB compilation (AID 1745844)
- run conditions: rat; strain Charles River CD (Sprague-Dawley); males; in feed; site: liver; lesion: hepatocellular tumor; dosed 78 weeks; study length 78 weeks
recorded endpoint: TD50 (mg/kg/day)
Quick reminder: number only, in mg/kg/day, skip the unit.

The molecule listed as "CCN(CC)C(=S)SSC(=S)N(CC)CC" shows TD50 equal to 366

====

- System: rodent lifetime carcinogenesis bioassay, tumor incidence TD50
- method description: carcinogenic potency in animals, long-term in vivo studies, CPDB compilation (AID 1745844)
- run conditions: rat; strain Alpk:APfSD; females; by gavage; site: liver; lesion: hepatocholangiocarcinoma; dosed 88 weeks; study length 107 weeks
recorded endpoint: TD50 (mg/kg/day)
Quick reminder: number only, in mg/kg/day, skip the unit.

The compound listed as "CC/C(=C(\c1ccccc1)c1ccc(OCCN(C)C)cc1)c1ccccc1" shows TD50 equal to 241

====

- System: rodent lifetime carcinogenesis bioassay, tumor incidence TD50
- method description: carcinogenic potency in animals, long-term in vivo studies, CPDB compilation (AID 1745844)
- run conditions: rat; strain Fischer 344; males; in drinking water; site: kidney; lesion: one or several types; types not named; dosed 48 weeks; study length 95 weeks
recorded endpoint: TD50

TD50 on rodent lifetime carcinogenesis bioassay, tumor incidence TD50 for "O=NN(CCO)CCO" is 99.7 mg/kg/day

====

- Tested on: rodent lifetime carcinogenesis bioassay, tumor incidence TD50
- method description: carcinogenic potency in animals, long-term in vivo studies, CPDB compilation (AID 1745844)
- run conditions: rat; strain Sprague-Dawley; females; by gavage; site: any site (literature study); lesion: malignant tumor; dosed 167 weeks; study length 167 weeks
recorded endpoint: TD50

The molecule listed as "CC/C(=C(\c1ccccc1)c1ccc(OCCN(C)C)cc1)c1ccccc1" shows TD50 equal to 88.7 mg/kg/day

====

- Test system: rodent lifetime carcinogenesis bioassay, tumor incidence TD50
- method description: carcinogenic potency in animals, long-term in vivo studies, CPDB compilation (AID 1745844)
- run conditions: rat; strain Fischer 344; males; by gavage; site: liver; lesion: hepatocellular carcinoma; dosed 30 weeks; study length 102 weeks
recorded endpoint: TD50

The compound listed as "CCCCCCCCCCN(C)N=O" shows TD50 equal to 22.7 mg/kg/day

====

- System: rodent lifetime carcinogenesis bioassay, tumor incidence TD50
- method description: carcinogenic potency in animals, long-term in vivo studies, CPDB compilation (AID 1745844)
- run conditions: rat; strain Sprague-Dawley; females; i.p.; site: mammary gland; lesion: adenocarcinoma, NOS; dosed 26 weeks; study length 86 weeks
recorded endpoint: TD50

TD50 on rodent lifetime carcinogenesis bioassay, tumor incidence TD50 for "CNNCc1ccc(C(=O)NC(C)C)cc1" is 0.459 mg/kg/day

====

- System: rodent lifetime carcinogenesis bioassay, tumor incidence TD50
- method description: carcinogenic potency in animals, long-term in vivo studies, CPDB compilation (AID 1745844)
- run conditions: mouse; strain Swiss albino; females; in drinking water; site: liver; lesion: angiosarcoma; dosed 112 weeks; study length 112 weeks
recorded endpoint: TD50 (mg/kg/day)
Quick reminder: number only, in mg/kg/day, skip the unit.

TD50 on rodent lifetime carcinogenesis bioassay, tumor incidence TD50 for "NNc1ccccc1" is 165
